System tested: human serum albumin (human) (UniProt P02768)
Sequence (P02768 25-609 limits assumed): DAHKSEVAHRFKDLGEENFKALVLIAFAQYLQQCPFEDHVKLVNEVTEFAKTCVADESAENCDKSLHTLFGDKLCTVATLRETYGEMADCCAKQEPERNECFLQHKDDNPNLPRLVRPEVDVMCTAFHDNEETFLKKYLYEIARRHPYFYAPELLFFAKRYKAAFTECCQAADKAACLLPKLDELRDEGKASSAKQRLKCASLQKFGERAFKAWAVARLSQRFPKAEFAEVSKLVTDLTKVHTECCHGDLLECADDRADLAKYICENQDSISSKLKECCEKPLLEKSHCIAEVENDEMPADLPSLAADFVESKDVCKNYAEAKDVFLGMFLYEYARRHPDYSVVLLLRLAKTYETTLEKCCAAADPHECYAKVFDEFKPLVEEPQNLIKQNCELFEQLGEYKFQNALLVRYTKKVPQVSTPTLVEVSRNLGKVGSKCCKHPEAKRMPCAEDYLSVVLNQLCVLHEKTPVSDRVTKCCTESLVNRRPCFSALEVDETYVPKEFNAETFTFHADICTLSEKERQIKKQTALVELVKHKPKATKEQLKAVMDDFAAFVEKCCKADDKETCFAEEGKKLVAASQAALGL
Assay name: screening ELISA
Response field label takes 1 when HSA is strictly below 4000 and 0 in all other cases.

# Binder, Class label
data = [
    ("SEQ ID NO 283 (designed binder) MLPAPKNLVVSRVTEDSARLSWTAPDAAFDSFPIAYAEPRPDGEAIVLTVPGSERSYDLTGLKPGTEYSVLIHGVKGGLLSSPLSAIFTT", 0),
    ("SEQ ID NO 203 (designed binder) MLPAPKNLVVSRVTEDSARLSWTAPDAALDSFRIEYYESYGHGEAIVLTVPGSERSYDLTGLKPGTEYDVGIYGVKGGYYSRPLSAIFTT", 1),
    ("SEQ ID NO 196 (designed binder) MLPAPKNLVVSRVTEDSARLSWTAPDAAFDSFNIHYVEWWVLGEAIVLTVPGSERSYDLTGLKPGTEYPVYIYGVKGGPKSIPLSAIFTT", 0),
    ("SEQ ID NO 138 (designed binder) MLPAPKNLVVSRVTEDSARLSWTAPDAAFDSFFIKYIEWWADGEAIVLTVPGSERSYDLTGLKPGTEYLVEIYGVKGGRQSYPLSAIFTT", 1),
    ("SEQ ID NO 229 (designed binder) MLPAPKNLVVSRVTEDSARLSWTAPDAAFDSFSIHYDEDWRRGEAIVLTVPGSERSYDLTGLKPGTEYLVEIPGVKGGKASYPLSAIFTT", 1),
    ("SEQ ID NO 279 (designed binder) MLPAPKNLVVSRVTEDSARLSWTAPDAAFDSFSIEYYESVGLGEAIVLTVPGSERSYDLTGLKPGTEYDVSIYGVKGGYLSRPLSAIFTT", 1),
    ("SEQ ID NO 252 (designed binder) MLPAPKNLVVSRVTEDSARLSWTAPDAAFDSFDIGYTEYGGYGEAIVLTVPGSERSYDLTGLKPGTEYWVLIQGVKGGGSSVPLSAIFTT", 1),
    ("SEQ ID NO 226 (designed binder) MLPAPKNLVVSRVTEDSARLSWTAPDAAFDSFHIIYEEVLTEGEAIYLRVPGSERSYDLTGLKPGTEYGVTIKGVKGGAYSIPLIATFTT", 1),
    ("SEQ ID NO 269 (designed binder) MLPAPKNLVVSRVTEDSARLSWTAPDAAFDSFHINYAEVYTKGEAILLTVPGSERSYDLTGLKPGTEYEVYIPGVKGGPFSRPLNAQFTT", 0),
]
